Target: T1, human MSLN-hFc protein (Acro, Cat. No. MSN-H5253) (human, UniProt Q13421 296-580)
T1 construct: the method names the coated protein as human MSLN-hFc (Acro); also called human MSLN full-length protein
T1 sequence (Q13421 other isoform, or with tags, fused parts or gaps limits assumed): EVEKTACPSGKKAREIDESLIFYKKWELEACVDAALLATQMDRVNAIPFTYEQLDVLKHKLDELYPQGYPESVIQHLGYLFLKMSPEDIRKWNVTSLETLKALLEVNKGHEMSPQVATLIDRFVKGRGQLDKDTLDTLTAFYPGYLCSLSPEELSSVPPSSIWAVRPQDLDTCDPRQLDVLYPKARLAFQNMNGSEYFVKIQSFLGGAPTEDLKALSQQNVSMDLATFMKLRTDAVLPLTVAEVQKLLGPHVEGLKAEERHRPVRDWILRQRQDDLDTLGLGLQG
Assay: ELISA on coated antigen, antibody 1 nM
PROPERTY: OD450 (OD450)
Your answer should be a plain number; it is taken to be in OD450.

Here is how some binders turned out for OD450.
binder="F7.33.24-H6 (scFv, not shown: small tags and cut ends, also called S009-F7.33.24 humanized antibody VH1a + VL3) scFv: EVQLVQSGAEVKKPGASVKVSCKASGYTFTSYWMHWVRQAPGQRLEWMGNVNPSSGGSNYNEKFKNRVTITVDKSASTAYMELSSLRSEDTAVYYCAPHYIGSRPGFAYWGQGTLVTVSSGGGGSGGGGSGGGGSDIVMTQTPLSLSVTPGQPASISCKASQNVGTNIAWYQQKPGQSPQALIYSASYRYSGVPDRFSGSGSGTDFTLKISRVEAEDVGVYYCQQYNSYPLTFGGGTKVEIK" observed=0.45
binder="F7.33.24-H11 (scFv, not shown: small tags and cut ends, also called S009-F7.33.24 humanized antibody VH2a + VL2) scFv: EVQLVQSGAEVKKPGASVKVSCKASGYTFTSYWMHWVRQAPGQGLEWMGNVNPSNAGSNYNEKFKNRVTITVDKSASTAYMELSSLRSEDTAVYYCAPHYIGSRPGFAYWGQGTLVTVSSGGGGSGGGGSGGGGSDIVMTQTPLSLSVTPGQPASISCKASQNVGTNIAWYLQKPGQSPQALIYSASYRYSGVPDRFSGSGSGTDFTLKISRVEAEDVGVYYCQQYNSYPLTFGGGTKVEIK" observed=0.57

Proceed to the following item.
binder F7.33.24-H10 (scFv, not shown: small tags and cut ends, also called S009-F7.33.24 humanized antibody VH2a + VL1) scFv: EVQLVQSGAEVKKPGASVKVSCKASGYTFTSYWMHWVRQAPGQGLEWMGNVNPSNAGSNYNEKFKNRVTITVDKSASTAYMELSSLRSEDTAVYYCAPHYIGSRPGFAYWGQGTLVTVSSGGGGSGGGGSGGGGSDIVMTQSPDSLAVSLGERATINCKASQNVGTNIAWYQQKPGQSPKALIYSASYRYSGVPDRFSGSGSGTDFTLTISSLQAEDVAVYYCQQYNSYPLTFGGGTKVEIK , OD450 observed: 0.51
